System: TTR
procedure-text: TTR editing in primary human hepatocytes transfected with Spy Cas9 protein (RNP) loaded with dgRNAs (Table 8)
Type: cell-based
test-conditions: dgRNA transfected with Spy Cas9 protein (RNP)
measurement-name: Avg % Deletion (%)

* GCGGCGGGGGCCGGAGUCGU (tested as dual guide RNA, chemistry not given here) [CR003374] | 0.14
* UGUCUGUCUUCUCUCAUAGG (tested as dual guide RNA, chemistry not given here) [CR005307] | 8.55
* AGCCUUUCUGAACACAUGCA (tested as dual guide RNA, chemistry not given here) [CR003351] | 16.36
* CCUCUGCAUGCUCAUGGAAU (tested as dual guide RNA, chemistry not given here) [CR003370] | 1.26
* GAAAGGCUGCUGAUGACACC (tested as dual guide RNA, chemistry not given here) [CR003352] | 3.21
* UGGACUGGUAUUUGUGUCUG (tested as dual guide RNA, chemistry not given here) [CR003340] | 4.50
* AAGUGCCUUCCAGUAAGAUU (tested as dual guide RNA, chemistry not given here) [CR003368] | 1.00
